Cathepsin S (Homo sapiens): reported Ki for various compounds.
Sequence (P25774 115-331, species assumed): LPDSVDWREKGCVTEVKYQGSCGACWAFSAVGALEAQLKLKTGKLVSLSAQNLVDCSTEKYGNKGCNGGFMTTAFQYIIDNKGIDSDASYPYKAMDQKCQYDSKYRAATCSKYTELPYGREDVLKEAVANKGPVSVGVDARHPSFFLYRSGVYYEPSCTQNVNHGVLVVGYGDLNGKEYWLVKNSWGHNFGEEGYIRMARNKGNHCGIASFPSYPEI

- COMPOUND: "O=C1C[C@H](NC(=O)[C@H](CC2CCCC2)NC(=O)c2cccc(C(F)(F)F)c2)C(O)O1 (stereo partly drawn)"
  TGT: "Cathepsin S (Homo sapiens)"
  Ki: "< 100 nM"
- COMPOUND: "CCO[C@@H]1OC(=O)C[C@@H]1NC(=O)[C@H](CC(C)(C)C)NC(=O)OC(C)(C)C"
  TGT: "Cathepsin S (Homo sapiens)"
  Ki: "< 1000 nM"
- COMPOUND: "O=C1C[C@H](NC(=O)O[C@@H](CC2CCCC2)Cn2cnc3cc(Cl)c(Cl)cc32)C(O)O1 (stereo partly drawn)"
  TGT: "Cathepsin S (Homo sapiens)"
  Ki: "< 100 nM"
